Hey, just so you know, these numbers are from patent US20230257396A1.

test target: kinases (Homo sapiens, UniProt P36888)
Construct: purchased Eurofins/DiscoveRx; host or cells: E. coli BL21-derived host (T7 phage display) for most kinases; HEK-293 for the rest
Sequence (P36888 27-993): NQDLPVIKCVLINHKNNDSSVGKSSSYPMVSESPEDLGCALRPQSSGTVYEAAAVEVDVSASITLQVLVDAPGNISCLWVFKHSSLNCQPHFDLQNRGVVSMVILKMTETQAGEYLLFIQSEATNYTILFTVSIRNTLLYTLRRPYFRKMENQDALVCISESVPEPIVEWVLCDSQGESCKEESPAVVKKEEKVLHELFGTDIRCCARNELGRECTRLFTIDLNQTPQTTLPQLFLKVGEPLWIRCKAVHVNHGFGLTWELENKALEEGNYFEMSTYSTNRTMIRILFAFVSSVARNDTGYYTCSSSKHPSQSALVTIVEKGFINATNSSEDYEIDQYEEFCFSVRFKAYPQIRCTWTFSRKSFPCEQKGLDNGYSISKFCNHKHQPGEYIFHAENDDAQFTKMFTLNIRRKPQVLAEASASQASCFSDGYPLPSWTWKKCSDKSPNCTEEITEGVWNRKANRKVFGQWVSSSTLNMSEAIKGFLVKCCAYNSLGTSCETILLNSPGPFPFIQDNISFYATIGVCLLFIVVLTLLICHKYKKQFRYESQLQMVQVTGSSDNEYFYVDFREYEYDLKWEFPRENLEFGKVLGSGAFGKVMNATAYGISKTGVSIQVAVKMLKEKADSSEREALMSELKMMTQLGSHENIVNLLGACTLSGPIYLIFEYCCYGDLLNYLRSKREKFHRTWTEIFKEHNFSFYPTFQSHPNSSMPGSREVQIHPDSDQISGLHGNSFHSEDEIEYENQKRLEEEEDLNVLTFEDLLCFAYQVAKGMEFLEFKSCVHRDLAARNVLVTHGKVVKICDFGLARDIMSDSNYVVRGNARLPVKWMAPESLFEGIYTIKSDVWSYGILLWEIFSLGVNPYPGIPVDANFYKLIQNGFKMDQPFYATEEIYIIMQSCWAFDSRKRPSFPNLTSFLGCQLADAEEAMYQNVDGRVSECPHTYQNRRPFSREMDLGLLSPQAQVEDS
test protocol: KINOMEscan kinase binding assay (Eurofins/DiscoveRx), % Ctrl
run parameters: 1 μM; FLT3
In this section, each of the compounds is paired with its reported % Ctrl, FLT3.
Just the number in % Ctrl, nothing appended.

The cases that follow already have their % Ctrl, FLT3 on record.
Request: Request body: readout % Ctrl, FLT3, system kinases (Homo sapiens, UniProt P36888), query Cc1cc2c([nH]1)/C=C1\C(=O)Nc3ccc(cc31)-c1ccnn1CCNCCNC2=O . Return the value.
Response: 99

Request: # value lookup — system kinases (Homo sapiens, UniProt P36888), readout % Ctrl, FLT3, item Cc1cc2c([nH]1)/C=C1\C(=O)Nc3cc(Cl)c(cc31)OCCO[C@@H](C(=O)N(C)C)CN(C)C2=O
Response: 55

Request: Param readout = % Ctrl, FLT3; param system = kinases (Homo sapiens, UniProt P36888); param query = Cc1cc2c([nH]1)/C=C1\C(=O)Nc3ccc(cc31)-c1c(C)n[nH]c1CNCCN(C)C2=O ; response: value
Response: 4.6

Request: So what % Ctrl, FLT3 did Cc1cc2c([nH]1)/C=C1\C(=O)Nc3ccc(cc31)-c1ccnn1CCOCCNC2=O get with kinases (Homo sapiens, UniProt P36888)?
Response: 100

Request: Write down the reported % Ctrl, FLT3 of Cc1cc2c([nH]1)/C=C1\C(=O)Nc3ccc(cc31)-c1c(noc1C)COCCN(C)C2=O , test system: kinases (Homo sapiens, UniProt P36888).
Response: 66

// switching to the query compound
Request: What measured % Ctrl, FLT3 is associated with Cc1cc2c([nH]1)/C=C1\C(=O)Nc3ccc(cc31)-c1cnn(C)c1CN(C)CCN(C)C2=O on kinases (Homo sapiens, UniProt P36888)?
Response: 0.2

----------
test target: kinases (Homo sapiens, UniProt P00533, L858R)
Construct: purchased Eurofins/DiscoveRx; host or cells: E. coli BL21-derived host (T7 phage display) for most kinases; HEK-293 for the rest
test protocol: KINOMEscan kinase binding assay (Eurofins/DiscoveRx), % Ctrl
run parameters: 1 μM; target EGFR(L858R)
recorded endpoint: % Ctrl, EGFR(L858R) (% Ctrl)
Could you give me the number in % Ctrl? Just the number is fine.

Request: Look up % Ctrl, EGFR(L858R) for this compound: Cc1cc2c([nH]1)/C=C1\C(=O)Nc3cc(Cl)c(cc31)SCCOCCN(C)C2=O [Ex. 169]
Response: 52

Request: Which measured % Ctrl, EGFR(L858R) value corresponds to Cc1cc2c([nH]1)/C=C1\C(=O)Nc3ccc(cc31)-c1cnn(C)c1OCCCN(C)C2=O [Ex. 166] ?
Response: 85

Request: Look up % Ctrl, EGFR(L858R) for this compound: CN1CCOc2cc3c(cc2Cl)NC(=O)/C3=C\c2[nH]ccc2C(=O)N(C)CC1 [Ex. 164]
Response: 45

Further cases:
Request: I'd like to know its % Ctrl, EGFR(L858R). The compound in question is Cc1cc2c([nH]1)/C=C1\C(=O)Nc3cnc(cc31)-c1cnn(C)c1CN(C)CCN(C)C2=O [Ex. 172]
Response: 48

Request: So what does the record say about % Ctrl, EGFR(L858R) for Cc1cc2c([nH]1)/C=C1\C(=O)Nc3ccc(cc31)-c1c(noc1C(C)C)COCCN(C)C2=O [Ex. 161] ?
Response: 100
